# tgt: Menin (Homo sapiens) (UniProt O00255)
# Sequence (O00255 whole entry): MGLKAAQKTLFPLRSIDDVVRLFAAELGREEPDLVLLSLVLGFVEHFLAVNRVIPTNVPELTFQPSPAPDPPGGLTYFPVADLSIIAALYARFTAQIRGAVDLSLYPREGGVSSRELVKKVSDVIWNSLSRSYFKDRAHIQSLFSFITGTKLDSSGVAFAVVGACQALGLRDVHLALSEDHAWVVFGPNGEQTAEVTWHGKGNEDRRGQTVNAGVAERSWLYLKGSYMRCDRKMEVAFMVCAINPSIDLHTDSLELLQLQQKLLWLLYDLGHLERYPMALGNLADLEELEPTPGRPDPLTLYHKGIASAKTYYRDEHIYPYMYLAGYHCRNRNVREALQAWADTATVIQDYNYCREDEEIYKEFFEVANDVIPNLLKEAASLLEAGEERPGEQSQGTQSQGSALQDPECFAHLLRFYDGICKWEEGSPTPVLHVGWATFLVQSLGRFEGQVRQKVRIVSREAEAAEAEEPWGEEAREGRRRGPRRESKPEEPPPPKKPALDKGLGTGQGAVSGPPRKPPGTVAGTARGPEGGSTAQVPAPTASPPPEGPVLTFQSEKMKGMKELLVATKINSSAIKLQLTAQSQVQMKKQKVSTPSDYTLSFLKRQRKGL
# protocol_summary: Inhibition of FITC-labelled MLL1 binding to menin (unknown origin) at 20 uM after 120 mins by fluorescence polarization method relative to control
quantity_kind: inhibition

Ask: Quote Menin (Homo sapiens) (UniProt O00255) inhibition for entry CC1=C2NC(C)(C)CC2=NC(C)(C)C1=O .
Result: < 50%

Ask: Look up and report inhibition, with Menin (Homo sapiens) (UniProt O00255) as system, for CC(=O)NC(C)(C)C[C@@]1(O)C(=O)C2=C(C)NC(C)(C)C(=O)C2(C)[C@H]1O (stereo partly drawn)
Result: < 50%

Ask: Identify measured inhibition obtained with Menin (Homo sapiens) (UniProt O00255) for CC1=CC(C)(C)NC1=O .
Result: < 50%
